Source: ChEMBL document CHEMBL3763065

molecular target: Prostaglandin G/H synthase 2 (Homo sapiens, UniProt P35354); assay: Inhibition of human recombinant COX-2 using arachidonic acid as substrate assessed as PGE2 production preincubated for 10 mins followed by substrate addition incubated for 2 mins by ELISA
Sequence (P35354 whole entry): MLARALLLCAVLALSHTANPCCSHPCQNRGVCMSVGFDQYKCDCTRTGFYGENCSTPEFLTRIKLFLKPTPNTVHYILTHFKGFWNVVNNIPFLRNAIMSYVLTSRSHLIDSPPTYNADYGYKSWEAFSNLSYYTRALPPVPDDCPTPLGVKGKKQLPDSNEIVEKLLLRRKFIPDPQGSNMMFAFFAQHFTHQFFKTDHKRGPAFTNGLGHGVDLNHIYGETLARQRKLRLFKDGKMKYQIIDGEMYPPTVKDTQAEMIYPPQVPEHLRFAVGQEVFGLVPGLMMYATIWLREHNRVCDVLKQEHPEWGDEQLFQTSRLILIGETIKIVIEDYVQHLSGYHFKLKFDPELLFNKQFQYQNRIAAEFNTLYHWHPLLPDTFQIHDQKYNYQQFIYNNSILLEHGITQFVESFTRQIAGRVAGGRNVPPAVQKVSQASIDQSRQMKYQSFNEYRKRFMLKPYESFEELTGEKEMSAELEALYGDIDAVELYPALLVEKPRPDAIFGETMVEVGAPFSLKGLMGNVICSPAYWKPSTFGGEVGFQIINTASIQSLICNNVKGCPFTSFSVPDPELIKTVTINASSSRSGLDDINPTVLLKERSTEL
Reported IC50 values for the following compounds.
VALUE TYPE: IC50

SMILES ENTRY | ENDPOINT VALUE
COC(=O)c1cc(/C=C/c2cc(O)cc(O)c2)ccc1O | 1 µM
O=C(O)c1cc(/C=C/c2cc(O)cc(O)c2)ccc1O | 10.3 µM
O=C(O)c1cc(/C=C/c2ccc(O)cc2)ccc1O | > 500 µM
COc1ccc(/C=C/c2cc(OC)cc(OC)c2)cc1 | 1.67 µM
